- system-under-test: human GPR43 (Homo sapiens (Human))
- Sequence (O15552 whole entry): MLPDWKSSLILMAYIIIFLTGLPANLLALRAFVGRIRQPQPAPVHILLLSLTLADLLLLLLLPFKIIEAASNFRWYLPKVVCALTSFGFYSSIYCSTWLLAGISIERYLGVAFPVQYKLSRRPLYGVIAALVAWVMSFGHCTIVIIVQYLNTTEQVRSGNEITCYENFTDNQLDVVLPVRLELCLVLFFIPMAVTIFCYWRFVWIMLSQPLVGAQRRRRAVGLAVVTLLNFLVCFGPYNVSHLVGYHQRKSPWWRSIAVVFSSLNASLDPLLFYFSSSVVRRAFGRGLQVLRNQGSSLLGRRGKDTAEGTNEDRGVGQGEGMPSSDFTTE
- assay-name: Ca-Flux functional assay: determination of agonist/positive allosteric modulator (PAM) activity
- details: CHO-K1 Gα16 cells stably expressing human GPR43; compound added with EC20 sodium acetate; intracellular Ca2+ by FLIPR; does not distinguish agonist from PAM
pEC50: −log10 of the molar value.
// reported pEC50 per item
recorded-metric: pEC50

>>> data_value("Cc1nc(N2CCOC(C(F)(F)F)C2)c2[nH]c(N)c(S(=O)(=O)c3ccccc3F)c2n1 (stereo not shown) [Example 231]")
8.70
>>> data_value("Nc1[nH]c2c(OCC3CCCCC3)ncnc2c1S(=O)(=O)c1ccccc1 [Example 165]")
7.14
>>> data_value("Nc1[nH]c2c(OC3CCC(F)(F)CC3)ncnc2c1S(=O)(=O)c1ccccc1 [Example 211]")
7.47
>>> data_value("CCC(Oc1nc(C)nc2c(S(=O)(=O)c3ccccc3)c(N)[nH]c12)C1CC1 (stereo not shown) [Example 243]")
7.96

----------
pEC50 overview
- system-under-test: human GPR43 (Homo sapiens (Human))
- assay-name: Ca-Flux functional assay: determination of agonist/positive allosteric modulator (PAM) activity
- Assay type: cell-based
- details: CHO-K1 Gα16 cells stably expressing human GPR43; compound added with EC20 sodium acetate; intracellular Ca2+ by FLIPR; does not distinguish agonist from PAM
pEC50: −log10 of the molar value.
recorded-metric: pEC50

>>> data_value("CN(CC1OCCO1)c1ncnc2c(S(=O)(=O)c3ccccc3)c(N)[nH]c12 [Example 93]")
5.02
>>> data_value("C=C(C)c1cncc2c(S(=O)(=O)c3ccccc3)c(N)[nH]c12 [Example 100]")
6.84
>>> data_value("Nc1[nH]c2c(N3CCCCC3)ncnc2c1S(=O)(=O)c1ccccc1 [Example 7]")
7.33
>>> data_value("Cc1nc(N2CCOC(C)C2)c2[nH]c(N)c(S(=O)(=O)c3ccccc3)c2n1 (centres unmarked) [Example 111]")
7.72
>>> data_value("C=C(C)c1nc(C)nc2c(S(=O)(=O)c3ccccc3F)c(N)[nH]c12 [Example 224]")
7.07
>>> data_value("CC(Oc1ncnc2c(S(=O)(=O)c3ccccc3)c(N)[nH]c12)c1ccccc1 (centres unmarked) [Example 164]")
7.60
>>> data_value("O=S(=O)(c1ccccc1)c1c(NC2CCC(F)(F)CC2)[nH]c2ncccc12 [Example 1]")
5.26
>>> data_value("Cc1nc(C2CCCC2)c2[nH]c(N)c(S(=O)(=O)c3cccc(F)c3)c2n1 [Example 209]")
6.52
>>> data_value("Cc1nc(N2CCC3(CC2)CC3)c2[nH]c(N)c(S(=O)(=O)c3ccccc3F)c2n1 [Example 214]")
8.05
>>> data_value("CC1CN(c2ncnc3c(S(=O)(=O)c4ccccc4)c(N)[nH]c23)C(C)CO1 (centres unmarked) [Example 85]")
7.72
>>> data_value("Cc1nc(N2CCO[C@@H](C)C2)c2[nH]c(N)c(S(=O)(=O)c3ccc(Cl)cc3F)c2n1 [Example 235]")
8.70
>>> data_value("Cc1cc(C)n(-c2ncnc3c(S(=O)(=O)c4ccccc4)c(N)[nH]c23)n1 [Example 140]")
7.14
>>> data_value("CCC1(C)CN(c2ncnc3c(S(=O)(=O)c4ccccc4)c(N)[nH]c23)CCO1 (centres unmarked) [Example 221]")
6.98
>>> data_value("CC(C)CC1CN(c2ncnc3c(S(=O)(=O)c4ccccc4)c(N)[nH]c23)CCO1 (centres unmarked) [Example 101]")
7.51
>>> data_value("CC1CN(c2ncnc3c(S(=O)(=O)c4cccnc4)c(N)[nH]c23)CCO1 (centres unmarked) [Example 122]")
6.20
>>> data_value("Cc1nc(OC(C)C(F)(F)F)c2[nH]c(N)c(S(=O)(=O)c3ccccc3F)c2n1 (centres unmarked) [Example 274]")
8.10
>>> data_value("Cc1nc(N2C[C@@H](C)O[C@H](C)C2)c2[nH]c(N)c(S(=O)(=O)c3cccc(F)c3)c2n1 [Example 200]")
7.60
